Origin of the recorded values: ChEMBL document CHEMBL5252536

assay_target: Cytochrome P450 3A4 (Homo sapiens, UniProt P08684)
Sequence (P08684 whole entry): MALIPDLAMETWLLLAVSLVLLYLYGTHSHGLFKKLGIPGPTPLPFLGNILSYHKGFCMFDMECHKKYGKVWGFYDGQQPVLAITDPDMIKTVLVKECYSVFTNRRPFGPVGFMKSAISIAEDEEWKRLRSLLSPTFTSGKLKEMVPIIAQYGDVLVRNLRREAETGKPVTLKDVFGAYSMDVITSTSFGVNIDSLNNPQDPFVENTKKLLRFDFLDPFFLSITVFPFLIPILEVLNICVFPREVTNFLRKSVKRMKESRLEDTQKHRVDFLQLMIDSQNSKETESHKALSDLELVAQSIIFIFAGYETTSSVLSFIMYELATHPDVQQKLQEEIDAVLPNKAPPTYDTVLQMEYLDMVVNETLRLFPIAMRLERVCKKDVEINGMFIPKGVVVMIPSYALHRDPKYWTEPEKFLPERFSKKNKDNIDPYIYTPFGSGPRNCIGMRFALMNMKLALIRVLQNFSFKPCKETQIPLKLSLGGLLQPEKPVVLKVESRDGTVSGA
assay_remarks: Activation of CYP34A in human hepatocyte using midazolam as substrate preincubated for 5 days followed by substrate addition and measured after 1 hr by LC-MS/MS analysis
pEC50: −log10 of the molar value.
value_type: pEC50

pEC50 for Cytochrome P450 3A4 (Homo sapiens, UniProt P08684) with input `COc1ccc(CNC(=O)c2sc3nnc(C)c(C)c3c2N)cc1F` equals < 4.30

----------
Target chain: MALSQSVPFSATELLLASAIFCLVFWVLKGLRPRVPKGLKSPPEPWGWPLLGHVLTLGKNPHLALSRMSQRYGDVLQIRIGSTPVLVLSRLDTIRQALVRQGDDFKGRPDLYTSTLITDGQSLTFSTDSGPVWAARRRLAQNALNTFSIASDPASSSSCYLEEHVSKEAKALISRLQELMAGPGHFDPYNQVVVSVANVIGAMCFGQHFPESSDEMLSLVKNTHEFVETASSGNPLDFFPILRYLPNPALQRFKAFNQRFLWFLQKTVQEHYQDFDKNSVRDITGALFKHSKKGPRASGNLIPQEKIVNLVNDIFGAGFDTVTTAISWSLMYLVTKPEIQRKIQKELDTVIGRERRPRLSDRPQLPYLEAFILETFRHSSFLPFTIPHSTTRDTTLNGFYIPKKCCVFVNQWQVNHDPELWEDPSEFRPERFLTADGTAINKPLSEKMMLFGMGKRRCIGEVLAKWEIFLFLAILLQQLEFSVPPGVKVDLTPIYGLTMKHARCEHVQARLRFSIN
value_type: IC50

# IC50 of `COc1ccc(CNC(=O)c2sc3nnc(C)c(C)c3c2N)cc1F` = > 30 µM

----------
assay_target: UniProt P20813
Sequence (P20813 whole entry): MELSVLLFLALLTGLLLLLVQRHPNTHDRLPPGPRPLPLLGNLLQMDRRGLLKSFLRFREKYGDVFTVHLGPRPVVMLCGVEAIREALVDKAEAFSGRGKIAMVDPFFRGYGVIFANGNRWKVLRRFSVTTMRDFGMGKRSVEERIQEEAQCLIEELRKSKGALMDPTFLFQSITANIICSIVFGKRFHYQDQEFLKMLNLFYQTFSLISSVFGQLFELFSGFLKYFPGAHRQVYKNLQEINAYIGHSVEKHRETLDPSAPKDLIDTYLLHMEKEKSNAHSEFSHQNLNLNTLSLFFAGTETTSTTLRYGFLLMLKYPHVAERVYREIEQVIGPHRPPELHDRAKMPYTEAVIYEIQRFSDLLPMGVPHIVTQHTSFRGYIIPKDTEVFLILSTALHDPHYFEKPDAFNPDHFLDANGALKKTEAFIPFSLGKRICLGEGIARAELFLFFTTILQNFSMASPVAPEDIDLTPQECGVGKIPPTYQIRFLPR
assay_remarks: Activation of CYP2B6 in human hepatocyte using bupropion as substrate preincubated for 5 days followed by substrate addition and measured after 1 hr by LC-MS/MS analysis
pEC50: −log10 of the molar value.
value_type: pEC50

# pEC50 of `COc1ccc(CNC(=O)c2sc3nnc(C)c(C)c3c2N)cc1F` = < 4.30

----------
assay_remarks: Plasma protein binding in human assessed as unbound fraction incubated for 4 hrs by LC/MS/MS analysis
Type: ADME, cell-free
value_type: fraction unbound at 4 h

# fraction unbound at 4 h of `COc1ccc(CNC(=O)c2sc3nnc(C)c(C)c3c2N)cc1F` = 0.054

----------
assay_remarks: Oral bioavailability in Sprague-Dawley rat at 3 mg/kg by LC-MS/MS analysis
Format: ADME, organism-based
reported_conditions: in vivo
value_type: bioavailability
Answer shape: numeric part, then the unit.

# bioavailability of `COc1ccc(CNC(=O)c2sc3nnc(C)c(C)c3c2N)cc1F` = 79%

----------
assay_remarks: Oral bioavailability in Beagle dog at 3 mg/kg by LC-MS/MS analysis
Assay type: ADME, organism-based, Canis lupus familiaris
reported_conditions: in vivo
value_type: bioavailability (%)
Provide only the numeric value, understood in %.

# bioavailability of `COc1ccc(CNC(=O)c2sc3nnc(C)c(C)c3c2N)cc1F` = 9.5

----------
assay_remarks: Apparent permeability across apical to basolateral side in human Caco-2 cells
Assay type: ADME, cell-based
value_type: Papp A→B (×10⁻⁶ cm/s)
Provide only the numeric value, understood in ×10⁻⁶ cm/s.

# Papp A→B of `COc1ccc(CNC(=O)c2sc3nnc(C)c(C)c3c2N)cc1F` = 31

----------
assay_remarks: Tmax in Beagle dog at 3 mg/kg,po by LC-MS/MS analysis
Assay type: ADME, organism-based, Canis lupus familiaris
reported_conditions: in vivo
value_type: Tmax

# Tmax of `COc1ccc(CNC(=O)c2sc3nnc(C)c(C)c3c2N)cc1F` = 45 min
